# phospho-MET ELISA EMAX (% HGF activity), A549 cells per record follows
- ASSAYED_TARGET: native human MET on living cells (human, UniProt P08581 25-1390)
- Sequence (P08581 25-1390): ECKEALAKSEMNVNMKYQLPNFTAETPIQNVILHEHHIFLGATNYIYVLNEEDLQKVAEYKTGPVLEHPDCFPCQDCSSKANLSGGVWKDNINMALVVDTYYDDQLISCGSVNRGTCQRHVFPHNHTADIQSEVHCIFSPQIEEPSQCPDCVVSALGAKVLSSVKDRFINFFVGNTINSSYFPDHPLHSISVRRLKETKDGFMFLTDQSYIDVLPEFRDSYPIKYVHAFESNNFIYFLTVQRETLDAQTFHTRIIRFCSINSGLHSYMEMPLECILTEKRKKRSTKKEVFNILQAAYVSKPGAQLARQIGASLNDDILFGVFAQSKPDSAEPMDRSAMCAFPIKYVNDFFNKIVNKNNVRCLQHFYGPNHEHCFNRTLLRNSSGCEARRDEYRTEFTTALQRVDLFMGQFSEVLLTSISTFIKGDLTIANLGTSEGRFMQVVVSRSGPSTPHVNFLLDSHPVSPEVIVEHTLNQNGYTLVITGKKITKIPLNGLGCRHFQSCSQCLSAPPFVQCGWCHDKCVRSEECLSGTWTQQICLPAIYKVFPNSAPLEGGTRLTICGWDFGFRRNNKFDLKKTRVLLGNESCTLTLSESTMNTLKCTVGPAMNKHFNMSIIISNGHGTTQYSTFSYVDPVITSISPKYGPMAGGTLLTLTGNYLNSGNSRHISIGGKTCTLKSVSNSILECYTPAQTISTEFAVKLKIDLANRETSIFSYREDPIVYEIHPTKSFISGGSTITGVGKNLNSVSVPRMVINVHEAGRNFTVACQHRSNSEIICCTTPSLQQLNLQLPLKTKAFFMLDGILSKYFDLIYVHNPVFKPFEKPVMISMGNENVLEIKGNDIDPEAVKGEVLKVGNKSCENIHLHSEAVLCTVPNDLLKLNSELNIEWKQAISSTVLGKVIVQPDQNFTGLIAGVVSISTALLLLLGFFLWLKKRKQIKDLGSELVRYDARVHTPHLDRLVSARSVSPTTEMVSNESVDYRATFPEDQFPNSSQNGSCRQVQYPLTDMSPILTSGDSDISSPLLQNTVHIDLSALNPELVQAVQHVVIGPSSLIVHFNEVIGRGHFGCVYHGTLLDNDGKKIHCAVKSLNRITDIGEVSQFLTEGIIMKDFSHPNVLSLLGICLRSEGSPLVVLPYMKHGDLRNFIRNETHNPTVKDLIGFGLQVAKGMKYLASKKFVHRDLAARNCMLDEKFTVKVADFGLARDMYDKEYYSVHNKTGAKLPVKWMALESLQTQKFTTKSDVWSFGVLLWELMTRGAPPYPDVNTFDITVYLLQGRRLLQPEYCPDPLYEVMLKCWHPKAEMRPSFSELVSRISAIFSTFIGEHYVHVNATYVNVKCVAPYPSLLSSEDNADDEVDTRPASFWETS
- EXPERIMENT_DESCRIPTION: cell-based or functional assay
Response body: numeric value in %, unit text excluded.

{"BINDER": "71G12 chimeric llama-human IgG1 mAb (antibody, V domains shown, llama VH on human IgG1 CH1-CH2-CH3, llama VL on human kappa CL) VH: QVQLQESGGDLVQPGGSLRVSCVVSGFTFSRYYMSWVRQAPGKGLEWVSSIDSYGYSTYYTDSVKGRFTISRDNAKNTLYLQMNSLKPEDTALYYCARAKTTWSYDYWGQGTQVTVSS VL: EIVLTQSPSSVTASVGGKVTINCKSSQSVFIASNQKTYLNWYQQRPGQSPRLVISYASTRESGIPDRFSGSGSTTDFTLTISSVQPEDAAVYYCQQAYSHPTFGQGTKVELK", "MEASURED": 70.6}

Could you now look at the following binder, please?
Problem: I am curious: what phospho-MET ELISA EMAX (% HGF activity), A549 cells value has been reported for 76G7 chimeric llama-human IgG1 mAb (antibody, V domains shown, llama VH on human IgG1 CH1-CH2-CH3, llama VL on human lambda CL) VH: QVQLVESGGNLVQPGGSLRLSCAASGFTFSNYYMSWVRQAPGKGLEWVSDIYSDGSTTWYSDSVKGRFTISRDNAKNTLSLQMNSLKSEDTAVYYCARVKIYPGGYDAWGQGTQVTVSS VL: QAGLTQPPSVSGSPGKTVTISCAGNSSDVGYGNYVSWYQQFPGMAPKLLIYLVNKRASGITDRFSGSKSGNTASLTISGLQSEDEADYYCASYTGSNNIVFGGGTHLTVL ?
Solution: 62.3

Ref: patent US20210087281A1
